System: guinea-pig urinary bladder (GPB) cells
MEASUREMENT NOTES: Membrane hyperpolarization (MHP) assay, potassium channel opening activity, DiBAC(4)3 / FLIPR
Type: cell-based
COND: Cavia porcellus; maximal steady-state hyperpolarization in GPB cells, relative to 10 μM P1075 (100%); read-out: Maximal Response (% P1075)
Description: Compounds were evaluated for potassium channel opening activity using primary cultured guinea-pig urinary bladder (GPB) cells. […] Functional activity at potassium channels was measured by evaluating changes in membrane potential using the bis-oxonol dye DiBAC(4)3 (Molecular Probes) in a 96-well cell-based kinetic assay system, Fluorescent Imaging Plate Reader (FLIPR) (K. S. Schroeder et al., J. Biomed. Screen., v. 1 pp. 75-81 (1996)), hereby incorporated by reference. […]
Classify: t when Emax is strictly less than 90%; f when Emax is not.

Solved entries:
INSERT INTO assay_data (compound, class_name) VALUES
  ('O=C1CCC2=C1C(c1ccc3nonc3c1)C1=C(CCC1=O)N2', 'f'),
  ('O=C1CCC2=C1C(c1ccc(F)c(Cl)c1)C1=C(CCC1=O)N2', 't'),
  ('N#Cc1cccc(C2C3=C(CCC3=O)NC3=C2C(=O)CC3)c1', 't');

(Q) Dear reviewer, please state whether CC1=C(C(=O)O)C(c2ccc(F)c(Br)c2)C2=C(CCC2=O)N1 (stereo not shown) has Emax strictly beneath 90%.
(A) f

(Q) Dear reviewer, please state whether `O=C1CCC2=C1C(c1ccc(F)c(Br)c1)C1=C(CCC1=O)N2` has Emax strictly beneath 90%.
(A) f

(Q) Dear reviewer, please state whether `O=C1CCC2=C1C(c1cccc([N+](=O)[O-])c1)C1=C(CCC1=O)N2` has Emax strictly beneath 90%.
(A) f

(Q) Dear reviewer, please state whether O=C1C=CC2=C1C(c1ccc(F)c(Br)c1)C1=C(CCCC1=O)N2 (stereo not shown) has Emax strictly beneath 90%.
(A) f

(Q) Dear reviewer, please state whether `O=C1CCC2=C1C(c1ccc(F)c(I)c1)C1=C(CCC1=O)N2` has Emax strictly beneath 90%.
(A) f

(Q) Dear reviewer, please state whether `O=C1CCC2=C1C(c1ccc(Cl)c([N+](=O)[O-])c1)C1=C(CCC1=O)N2` has Emax strictly beneath 90%.
(A) f

(Q) Dear reviewer, please state whether `O=C1CCC2=C1C(c1ccc(Cl)c(Cl)c1)C1=C(CCC1=O)N2` has Emax strictly beneath 90%.
(A) f
